- ASSAYED SYSTEM: XIAP BIR3 (Homo sapiens)
- Sequence (P98170 241-356): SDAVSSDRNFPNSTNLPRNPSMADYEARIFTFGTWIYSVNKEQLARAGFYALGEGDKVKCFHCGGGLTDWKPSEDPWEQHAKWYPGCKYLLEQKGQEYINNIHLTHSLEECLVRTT
- PROCEDURE SUMMARY: biochemical
- PARTICULARS: Ki (μM), Table 4, [5.3.0] bicyclic lactam system
PROPERTY NAME: Ki

GIVEN SMILES	MEAS VALUE
CC[C@H](N)C(=O)N[C@H]1CCC[C@H]2CC[C@@H](C(=O)NCc3ccccc3)N2C1=O	0.06 µM

====

Overview of recorded Ki for various compounds
- ASSAYED SYSTEM: XIAP BIR3 (Homo sapiens)
- PROCEDURE SUMMARY: biochemical
PROPERTY NAME: Ki (µM)

GIVEN SMILES	PROPERTY NAME	CENSORING SIGN	MEAS VALUE
C[C@H](N)C(=O)N[C@H]1CCC[C@H]2CC[C@@H](C(=O)NC(c3ccccc3)c3ccccc3)N2C1=O	Ki	=	0.059
C[C@H](N)C(=O)N[C@H]1CC[C@H]2CC[C@@H](C(=O)NCc3ccc(Br)cc3)N2C1=O	Ki	=	19.6
C[C@H](N)C(=O)N[C@H]1CC[C@H]2CC[C@@H](C(=O)NCc3cccc(Cl)c3)N2C1=O	Ki	=	12.2
C[C@H](N)C(=O)N[C@H]1CC[C@H]2CC[C@@H](C(=O)NCc3cccc(Br)c3)N2C1=O	Ki	=	9.62
C[C@H](N)C(=O)N[C@H]1CCC[C@H]2CC[C@@H](COC(c3ccccc3)c3ccccc3)N2C1=O	Ki	=	2.01
CC[C@H](N)C(=O)N[C@H]1CCCC[C@H]2CC[C@@H](C(=O)N[C@@H](c3ccccc3)c3cccc(C)c3)N2C1=O	Ki	=	0.012
CC[C@H](N)C(=O)N[C@H]1CC[C@H]2CC[C@@H](C(=O)N[C@@H](Cc3ccccc3)c3ccccc3)N2C1=O	Ki	=	8.51
CC[C@H](N)CC[C@H]1CCC[C@H]2CC[C@@H](C(=O)NC(c3ccccc3)c3ccccc3)N2C1=O	Ki	>	40
